Target: JAK1-JH2 domain (Homo sapiens, UniProt P23458)
Construct: JAK1-JH2 domain or TYK2-JH2 domain enzyme in assay buffer
Sequence (P23458 583-855 limits assumed): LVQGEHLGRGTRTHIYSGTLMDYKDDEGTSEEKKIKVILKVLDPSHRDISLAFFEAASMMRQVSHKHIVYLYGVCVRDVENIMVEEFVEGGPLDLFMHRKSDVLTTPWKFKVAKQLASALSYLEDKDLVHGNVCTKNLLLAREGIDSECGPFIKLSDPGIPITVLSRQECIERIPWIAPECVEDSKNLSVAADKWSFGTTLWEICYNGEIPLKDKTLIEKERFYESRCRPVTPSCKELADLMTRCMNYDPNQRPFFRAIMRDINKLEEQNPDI
Assay: Binding activity test for JH2 domain of JAK1 (Tb-antibody/tracer FRET)
Conditions: JH2 domain enzyme; 60 min at 25°C, then 4°C overnight; read-out: JAK1 JH2 Binding IC50
experimental-readout: IC50 (nM)
Lab book: enter the figure in nM, no units written.

>>> numeric_value("[2H]C([2H])([2H])O[C@@H](c1ccc2c(c(Nc3cc(NC(=O)C4CC45CC5)ncc3C(=O)OC)nn2C)c1OC)C(F)(F)F (stereo partly shown)")
77.8
>>> numeric_value("[2H]C([2H])([2H])n1nc(Nc2cc(NC(=O)C3CC3)ncc2C(=O)OC)c2c(OC)c(C(OC)C(F)F)ccc21 (stereo not shown)")
14.9

# input for lookup
Request: Fill in IC50 for record COC(=O)c1cnc(NC(=O)C2CC2)cc1Nc1nn(C)c2ccc(C(OC)C(F)(F)F)c(OC)c12 (stereo not shown)
Response: 64.3

====

Target: TYK2-JH2 domain (Homo sapiens)
Construct: JAK1-JH2 domain or TYK2-JH2 domain enzyme in assay buffer
Assay: Binding activity test for JH2 domain of TYK2 (Tb-antibody/tracer FRET)
Settings: JH2 domain enzyme; 60 min at 25°C, then 4°C overnight; read-out: TYK2 JH2 Binding IC50
# Lookup of reported pIC50 keyed by entry
Schema: pIC50 number; meaning minus log10 of the concentration expressed in molar units.

Solved cases below.
>>> numeric_value("COC(=O)c1cnc(NC(=O)C2CC2)cc1Nc1nn(C)c2ccc([C@H](OCOP(=O)(O)O)C(F)(F)F)c(OC)c12 [Example 170, phosphate]")
10.13
>>> numeric_value("[2H]C([2H])([2H])OC(=O)c1nnc(NC(=O)C2CC2)cc1Nc1nc2ccc(N3CC(OC)C3)cn2n1")
7.28
>>> numeric_value("COC(=O)c1cnc(NC(=O)C2CC2)cc1Nc1nn(C)c2ccc(C(O)C(F)(F)F)c(OC)c12 (stereo not shown)")
9.78
>>> numeric_value("[2H]C([2H])([2H])NC(=O)c1cnc(NC(=O)C2CC2)cc1Nc1cnn2ccc(C(C)(C)O)c(C)c12")
6.79
>>> numeric_value("CCC(=O)c1cnc(NC(=O)C2CC2)cc1Nc1ccn2nccc2c1OC [Example 195, reference compound]")
8.53

Request: Fill in pIC50 for record COC(=O)c1cnc(NC(=O)C2CC2)cc1Nc1nn(C)c2ccc([C@@H](OC)C(F)(F)F)c(OC)c12 [Example 45A]
Response: 9.08

Request: Fill in pIC50 for record [2H]C([2H])([2H])NC(=O)c1cnc(NC(=O)C2CC2)cc1Nc1cnn2ccc(COC([2H])([2H])[2H])c(OC)c12
Response: 9.66

====

Target: TYK2-JH2 domain (Homo sapiens, UniProt P29597)
Construct: JAK1-JH2 domain or TYK2-JH2 domain enzyme in assay buffer
Sequence (P29597 589-875 limits assumed): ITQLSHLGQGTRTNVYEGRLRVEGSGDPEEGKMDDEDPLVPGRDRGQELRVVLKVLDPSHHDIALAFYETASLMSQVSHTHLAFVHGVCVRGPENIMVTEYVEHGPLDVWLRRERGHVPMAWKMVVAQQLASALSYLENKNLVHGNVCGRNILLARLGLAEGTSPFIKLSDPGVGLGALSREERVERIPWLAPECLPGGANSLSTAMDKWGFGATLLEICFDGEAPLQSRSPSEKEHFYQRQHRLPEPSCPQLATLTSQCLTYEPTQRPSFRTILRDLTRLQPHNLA
Experiment: Binding activity test for JH2 domain of TYK2 (Tb-antibody/tracer FRET)
Conditions: JH2 domain enzyme; 60 min at 25°C, then 4°C overnight; read-out: TYK2 JH2 Binding IC50
# Lookup of reported pIC50 keyed by entry
Schema: pIC50 number; meaning minus log10 of the concentration expressed in molar units.

>>> numeric_value("[2H]C([2H])([2H])NC(=O)c1cnc(NC(=O)C2CC2)cc1Nc1cnn2ccc(C(O)(C(F)(F)F)C(F)(F)F)c(OC)c12")
8.37
>>> numeric_value("[2H]C([2H])([2H])NC(=O)c1nnc(NC(=O)C2CC2)cc1Nc1nn(C)c2ccc([C@@H](OC)C(F)(F)F)c(OC)c12 [Example 51A]")
9.81
>>> numeric_value("[2H]C([2H])([2H])NC(=O)c1cnc(NC(=O)C2CC2)cc1Nc1nn(CC)c2ccc(C(O)C(F)(F)F)c(OC)c12 (single isomer, unassigned) [Example 71B]")
9.60
>>> numeric_value("CCOC(c1ccc2c(c(Nc3cc(NC(=O)C4CC4)ncc3C(=O)OC)nn2C)c1OC)C(F)(F)F (racemic) [Example 106]")
8.88
>>> numeric_value("COC(=O)c1cnc(NC(=O)C2CC2)cc1Nc1ncn2ccc(C(OC)C(F)(F)F)c(OC)c12 (stereo not drawn)")
8.61

# input for lookup
Request: Fill in pIC50 for record [2H]C([2H])([2H])NC(=O)c1cnc(NC(=O)C2CC2)cc1Nc1nn(C)c2ccc([C@@H](OC([2H])([2H])[2H])C(F)(F)F)c(OC)c12 [Example 55B]
Response: 10.10

Data origin, for the record: patent EP4813463A2
